- System: adenosine A2A receptor (Homo sapiens (Human), UniProt P29274)
- Sequence (P29274 whole entry): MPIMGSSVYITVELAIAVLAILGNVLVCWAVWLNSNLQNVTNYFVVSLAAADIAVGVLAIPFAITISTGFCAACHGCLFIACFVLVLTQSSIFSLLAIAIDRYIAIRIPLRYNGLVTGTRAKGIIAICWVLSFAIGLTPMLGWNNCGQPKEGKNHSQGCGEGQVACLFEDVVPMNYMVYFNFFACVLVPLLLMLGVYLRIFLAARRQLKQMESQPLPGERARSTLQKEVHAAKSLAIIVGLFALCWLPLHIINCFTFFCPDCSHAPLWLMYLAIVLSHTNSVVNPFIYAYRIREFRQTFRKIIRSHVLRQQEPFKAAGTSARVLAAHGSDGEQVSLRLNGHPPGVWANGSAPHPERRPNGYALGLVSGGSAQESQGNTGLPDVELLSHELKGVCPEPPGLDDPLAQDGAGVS
- Method Summary: Adenosine receptor activity assay (Table 1), A2A activity
- Assay type: biochemical
- Condition Summary: read-out: Ave A2A cAMP IC50

Smiles Data | System | IC50
Cc1cc2nc(N[C@@H](C)c3cncc(F)c3)nc(C(=O)N3CC[C@@H](O)C3)c2s1 | adenosine A2A receptor (Homo sapiens (Human), UniProt P29274) | 100 to 500 nM
C[C@H](Nc1nc(C(=O)N2CC[C@H](O)C2)c2sccc2n1)c1cncc(F)c1 | adenosine A2A receptor (Homo sapiens (Human), UniProt P29274) | > 500 nM
Cc1cc2nc(N[C@@H](C)c3cccnc3)nc(C(=O)N3CC(CN(C)C)C3)c2s1 | adenosine A2A receptor (Homo sapiens (Human), UniProt P29274) | > 500 nM
C[C@H](Nc1nc(C(=O)NC2CN(C(=O)C(C)(C)C)C2)c2sccc2n1)c1cncc(F)c1 | adenosine A2A receptor (Homo sapiens (Human), UniProt P29274) | 100 to 500 nM

---

- System: UniProt:P29274
- Method Summary: Adenosine receptor activity assay (Table 1), A2A activity
- Format: biochemical
- Condition Summary: read-out: Ave A2A cAMP IC50

Compound | IC50
CNc1cc2nc(N[C@@H](C)c3cccnc3)nc(C(=O)N3CC[C@H](F)C3)c2s1 [Example Z187] | 100 to 500 nM
N[C@H]1CCN(C(=O)c2nc(NCc3cc(F)cc(F)c3)nc3ccsc23)C1 [Example Z371] | > 500 nM
C[C@H](Nc1nc(C(=O)N2CC[C@H](N)C2)c2sccc2n1)c1cncc(F)c1 [Example Z362] | > 500 nM
O=C(NC1CC(O)C1)c1nc(NCc2cncc(F)c2)nc2ccsc12 (stereo not shown) [Example Z184] | > 500 nM
C[C@H](Nc1nc(C(=O)NCCC2CCNC2)c2sccc2n1)c1ccccn1 (stereo partly shown) [Example Z431] | > 500 nM
C[C@H](Nc1nc(C(=O)N2CC[C@@H](NC(=O)OC(C)(C)C)C2)c2sccc2n1)c1ccccn1 [Example Z246] | 100 to 500 nM
CC1(O)CN(C(=O)c2nc(NCc3cncc(F)c3)nc3ccsc23)C1 [Example Z98] | > 500 nM

---

- System: adenosine A2A receptor (Homo sapiens (Human))
- Method Summary: Adenosine receptor activity assay (Table 1), A2A activity
- Format: biochemical
- Condition Summary: read-out: Ave A2A cAMP IC50

Smiles Data | IC50
CO[C@H]1CCN(C(=O)c2nc(N[C@@H](C)c3cccnc3)nc3ccsc23)C1 | 50 to 100 nM
CCc1cc2nc(N[C@@H](C)c3cccnc3)nc(C(=O)N3CCCC3)c2s1 | > 500 nM
C[C@H](Nc1nc(C(=O)N2CCCC2)c2sccc2n1)c1ccnc(F)c1 | 100 to 500 nM
Cc1cc2nc(N[C@@H](C)c3cncc(F)c3)nc(C(=O)NCC3CCOCC3)c2s1 | 100 to 500 nM

---

- System: adenosine A2A receptor (Homo sapiens (Human), UniProt P29274)
- Method Summary: Adenosine receptor activity assay (Table 1), A2A activity
- Type: biochemical
- Condition Summary: read-out: Ave A2A cAMP IC50
Outcome Measure: IC50

Smiles Data | Outcome Measure | Result
CC(C)NC(=O)c1nc(N[C@@H](C)c2ccccn2)nc2ccsc12 | IC50 | 10 to 50 nM
CC(=O)NC1CN(C(=O)c2nc(N[C@@H](C)c3cncc(F)c3)nc3ccsc23)C1 | IC50 | 100 to 500 nM
Cc1csc2c(C(=O)NCc3ccccn3)nc(N[C@@H](C)c3ccccn3)nc12 | IC50 | 10 to 50 nM
Cc1cc2nc(N[C@@H](C)c3cncc(F)c3)nc(C(=O)N3CC(C(=O)NOC(C)(C)C)C3)c2s1 | IC50 | 50 to 100 nM
CCNC(=O)c1nc(NCCc2ccc(O)cc2)nc2ccsc12 | IC50 | 100 to 500 nM
COCCNC(=O)c1nc(NCc2cnccn2)nc2ccsc12 | IC50 | > 500 nM
Cc1cc2nc(N[C@@H](C)c3cncc(F)c3)nc(C(=O)N3CC[C@@H](NC(=O)OCc4ccccc4)C3)c2s1 | IC50 | > 500 nM
CC(C)C(=O)N1CCN(C(=O)c2nc(N[C@@H](C)c3cncc(F)c3)nc3ccsc23)C1 | IC50 | > 500 nM
C[C@H](Nc1nc(C(=O)N2CCC[C@@H]2C)c2sccc2n1)c1cncc(F)c1 | IC50 | 100 to 500 nM

---

- System: adenosine A2A receptor (Homo sapiens (Human), UniProt P29274)
- Method Summary: Adenosine receptor activity assay (Table 1), A2A activity
- Assay type: biochemical
- Condition Summary: read-out: Ave A2A cAMP IC50
Outcome Measure: IC50

Molecule | Outcome Measure | Result
C[C@H](Nc1nc(C(=O)N2CC(O)C2)c2sc(N)cc2n1)c1ccccn1 | IC50 | 100 to 500 nM
Cc1cc2nc(N[C@@H](C)c3cncc(F)c3)nc(C(=O)N3CC(NC(=O)C4CCC4)C3)c2s1 | IC50 | 10 to 50 nM
CNc1cc2nc(N[C@@H](C)c3ccccn3)nc(C(=O)N3CC(O)C3)c2s1 | IC50 | > 500 nM
C[C@H](Nc1nc(C(=O)N2CC[C@@H](O)C2)c2sc(C(F)(F)F)cc2n1)c1cncc(F)c1 | IC50 | > 500 nM
C[C@H](Nc1nc(C(=O)N2CC[C@H](O)C2)c2sccc2n1)c1cncc(Cl)c1 | IC50 | > 500 nM
COCC(Nc1nc(C(=O)NC2CC2)c2sccc2n1)c1cccnc1 (stereo not drawn) | IC50 | 50 to 100 nM
C[C@H](Nc1nc(C(=O)NCc2ccc(C#N)nc2)c2sccc2n1)c1ccccn1 | IC50 | 100 to 500 nM
Cc1cc2nc(N[C@@H](C)c3ccccn3)nc(C(=O)N3CC[C@@H](O)C3)c2s1 | IC50 | 100 to 500 nM
C[C@H](Nc1nc(C(=O)N2CC[C@@H](F)C2)c2sc(N)cc2n1)c1cccnc1 | IC50 | 100 to 500 nM
C[C@H](Nc1nc(C(=O)N2CC(NC(=O)OC(C)(C)C)C2)c2sccc2n1)c1cncc(F)c1 | IC50 | 10 to 50 nM
Cc1cc2nc(N[C@@H](C)c3cccnc3)nc(C(=O)N3CC[C@H](CO)C3)c2s1 | IC50 | > 500 nM
N#Cc1cncc(CNc2nc(C(=O)N3CCCC3)c3sccc3n2)c1 | IC50 | > 500 nM

---

- System: adenosine A2A receptor (Homo sapiens (Human))
- Method Summary: Adenosine receptor activity assay (Table 1), A2A activity
- Assay type: biochemical
- Condition Summary: read-out: Ave A2A cAMP IC50
Below, each entry is listed with its recorded IC50.
Outcome Measure: IC50

Molecule | Outcome Measure | Result
Cc1cncc(CNC(=O)c2nc(NCc3cncc(C)c3)nc3ccsc23)c1 [Example Z45] | IC50 | > 500 nM
COC[C@@H](Nc1nc(C(=O)N2CCC2)c2sccc2n1)c1cccnc1 [Example Z341] | IC50 | 100 to 500 nM
C[C@H](Nc1nc(C(=O)N2CCN(CCCc3ccccc3)CC2)c2sccc2n1)c1cccnc1 [Example Z69] | IC50 | > 500 nM
C[C@H](Nc1nc(C(=O)N2CCC(C(=O)NC(C)(C)C)C2)c2sccc2n1)c1cncc(F)c1 (stereo partly drawn) [Example Z548] | IC50 | 100 to 500 nM
Cc1cc2nc(N[C@@H](C)c3cncc(F)c3)nc(C(=O)NCCC3CN(C(=O)C(F)(F)F)C3)c2s1 [Example Z521] | IC50 | > 500 nM
Cc1cc2nc(N[C@@H](C)c3cccnc3)nc(C(=O)N3CCCC3)c2s1 [Example Z213] | IC50 | 100 to 500 nM
CO[C@H]1CCN(C(=O)c2nc(N[C@@H](C)c3cncc(F)c3)nc3ccsc23)C1 [Example Z252] | IC50 | 100 to 500 nM
C[C@H]1CCN(C(=O)c2nc(N[C@@H](C)c3cccnc3)nc3ccsc23)C1 [Example Z63] | IC50 | 100 to 500 nM
CC(=O)N[C@@H]1CCN(C(=O)c2nc(NCc3cncc(F)c3)nc3ccsc23)C1 [Example Z318] | IC50 | > 500 nM
C[C@H](Nc1nc(C(=O)NCCc2cccc(Oc3ccccc3)c2)c2sccc2n1)c1cncc(F)c1 [Example Z417] | IC50 | > 500 nM
COC[C@@H]1CCN1C(=O)c1nc(N[C@@H](C)c2cncc(F)c2)nc2cc(C)sc12 [Example Z569] | IC50 | > 500 nM
C[C@H](Nc1nc(C(=O)N2CC[C@@H](O)C2)c2sccc2n1)c1cncc(Cl)c1 [Example Z237] | IC50 | > 500 nM

Origin of the recorded values: patent US11254686B1
